Recorded values, source paper PMC3115441.

# system: κ- opioid receptors (KOR) (Rattus norvegicus)
# Sequence (P34975 whole entry): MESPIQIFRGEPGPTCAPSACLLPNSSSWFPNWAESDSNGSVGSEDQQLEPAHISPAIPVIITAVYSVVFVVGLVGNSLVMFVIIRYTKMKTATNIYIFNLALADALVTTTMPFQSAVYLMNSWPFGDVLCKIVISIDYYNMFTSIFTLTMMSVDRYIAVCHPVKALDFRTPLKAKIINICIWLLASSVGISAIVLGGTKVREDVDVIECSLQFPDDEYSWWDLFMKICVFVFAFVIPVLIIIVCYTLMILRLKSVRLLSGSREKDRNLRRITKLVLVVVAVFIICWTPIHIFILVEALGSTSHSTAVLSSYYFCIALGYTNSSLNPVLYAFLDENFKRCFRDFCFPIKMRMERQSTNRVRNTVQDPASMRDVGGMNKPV
# assayInfo: NIMH-PDSP radioligand binding, KOR
# protocolConditions: read-out: KOR binding affinity; Rat Cloned, hot ligand U69593
recordedMetric: Ki (nM)
Record the value in nM, omitting the unit from your answer.

{"columns": ["compound", "system", "Ki / nM"],
 "data": [
  ["Fc1ccc(C2(NCCN3CCCCC3)CC3CCC2C3)cc1 (centres unmarked) [Compound 5b]", "κ- opioid receptors (KOR) (Rattus norvegicus)", 3550]
]}

Ki of Fc1ccc(C2(NCCN3CCCC3)CC3CCC2C3)cc1 (centres unmarked) [Compound 5f] , assay on κ- opioid receptors (KOR) (Rattus norvegicus), is 2110

====

# Test system: mice
# assayInfo: Acute toxicity, minimal motor impairment
# Format: in vivo
# protocolConditions: rotorod, 100 mg/kg, 0.5 h
recordedMetric: TOX (100) N/F, animals toxic over tested

{"columns": ["compound", "TOX (100) N/F, animals toxic over tested"],
 "data": [
  ["c1ccc(C2(NCCN3CCCC3)CC3CCC2C3)cc1 (centres unmarked)", "0/8"],
  ["c1ccc(C2(NCCN3CCCCC3)CC3CCC2C3)cc1 (centres unmarked)", "8/8"],
  ["c1ccc(C2(NCCN3CCOCC3)CC3CCC2C3)cc1 (centres unmarked)", "6/8"],
  ["Fc1ccc(C2(NCCN3CCCC3)CC3CCC2C3)cc1 (centres unmarked)", "5/8"]
]}

Please look at the following compound next.
TOX (100) N/F, animals toxic over tested of Fc1ccc(C2(NCCN3CCOCC3)CC3CCC2C3)cc1 (centres unmarked) , assay on mice, is 1/8

====

# system: PCP site of the NMDA receptor complex
# assayInfo: [3H]
# Format: binding, rat
# protocolConditions: read-out: NMDA affinity Ki; calculated by Cheng and Prusoff equation
Quick reference: Ki of the listed items.
Record the value in µM, omitting the unit from your answer.

Looking up c1ccc(C2(NCCN3CCCC3)CC3CCC2C3)cc1 (stereo not shown) , I found its Ki recorded as 5.67

Looking up c1ccc(C2(NCCN3CCCCC3)CC3CCC2C3)cc1 (stereo not shown) , I found its Ki recorded as 5.28

Looking up NC1(c2ccccc2)CC2CCC1C2 (stereo not shown) [Compound 4a, 2-phenylbicyclo[2.2.1]heptan-2-amine] , I found its Ki recorded as 8.45

Looking up Fc1ccc(C2(NCCN3CCCC3)CC3CCC2C3)cc1 (stereo not shown) , I found its Ki recorded as 5.82

====

# system: Sigma2 (Rattus norvegicus, UniProt Q5U3Y7)
# Sequence (Q5U3Y7 1-176): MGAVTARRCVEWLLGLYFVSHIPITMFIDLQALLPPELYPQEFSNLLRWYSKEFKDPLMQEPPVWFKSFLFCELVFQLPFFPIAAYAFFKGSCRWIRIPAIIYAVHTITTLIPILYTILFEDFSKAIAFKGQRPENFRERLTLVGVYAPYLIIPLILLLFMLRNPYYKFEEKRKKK
# assayInfo: NIMH-PDSP radioligand binding, Sigma-2
# protocolConditions: read-out: Sigma 2 binding affinity; Rat C12, hot ligand DTG
recordedMetric: Ki

{"columns": ["compound", "system", "Ki"],
 "data": [
  ["Fc1ccc(C2(NCCN3CCCCC3)CC3CCC2C3)cc1 (centres unmarked) [Compound 5b]", "Sigma2 (Rattus norvegicus, UniProt Q5U3Y7)", "> 10 µM"]
]}

Please look at the following compound next.
Looking up Fc1ccc(C2(NCCN3CCCC3)CC3CCC2C3)cc1 (centres unmarked) [Compound 5f] , I found its Ki recorded as > 10 µM
